The origin of these recorded values is patent US20100035865A1.

Please respond with reported EC50 for every item in the list.
# Test system: AMPA receptors
# procedure-summary: AMPA ES Cell FLIPR Screen, G7330B (EC50 and % effect)
# Assay type: cell-based, murine
# protocol-conditions: individual determinations; ES cell-derived neurons, 32 uM AMPA challenge; read-out: G7330B (U): EC50

Assay AMPA receptors, sample O=S(=O)(NC1CNCCC1c1ccc(-c2ccccc2)cc1)C1CC1 (stereo not shown) , EC50 read: > 32 µM

Assay AMPA receptors, sample CC(C)S(=O)(=O)NC1CCN(C)CC1c1ccc(-c2ccc(C#N)cc2)cc1 (stereo not shown) , EC50 read: > 31.6 µM

Assay AMPA receptors, sample CC(C)S(=O)(=O)N[C@@H]1CCN(C)C[C@H]1c1ccc(NC(=O)c2ccccc2)cc1 (relative stereo) , EC50 read: > 31.6 µM

Assay AMPA receptors, sample CC(=O)N1CCC(c2ccc(-c3ccccc3)cc2)C(NS(=O)(=O)C(C)C)C1 (stereo not shown) , EC50 read: > 31.6 µM

Assay AMPA receptors, sample CC(C)S(=O)(=O)NC1COCCC1c1ccc(-c2ccccc2)cc1 (stereo not shown) , EC50 read: > 32 µM

Assay AMPA receptors, sample CC(C)S(=O)(=O)NC1COCCC1c1ccc(-c2ccc(F)cc2)cc1 (stereo not shown) , EC50 read: 2.57 µM

Assay AMPA receptors, sample CCN1CC[C@@H](c2ccc(-c3ccccc3)cc2)[C@H](NS(=O)(=O)C(C)C)C1 (relative stereo) , EC50 read: > 31.6 µM

----------
# System: AMPA receptors
# procedure-summary: AMPA ES Cell FLIPR Screen, G7330B (EC50 and % effect)
# Assay type: cell-based, murine
# protocol-conditions: individual determinations; ES cell-derived neurons, 32 uM AMPA challenge; read-out: G7330B (U): EC50
# Description: The murine ES cell line used was E14-Sx1-16C, which has a targeted mutation in the Sox1 gene, a neuroectodermal marker, that offers G418 resistance when the Sox1 gene is expressed (Stem Cell Sciences). ES cells were maintained undifferentiated as previously described (Roach). […] ES cells were plated on gelatin-coated dishes (BD Biosciences), the media was changed daily and the cells were dissociated with 0.05% Trypsin EDTA (Invitrogen) every other day. […]
Please respond with reported EC50 for every item in the list.
Give your result in µM as a bare value.

Reported EC50 for CC(=O)N1CC[C@@H](NS(=O)(=O)C(C)C)[C@H](c2ccc(NC(=O)c3ccccc3)cc2)C1 (relative stereo) was 20.2

Reported EC50 for CCOc1ccccc1-c1ccc(C2CCOCC2NS(=O)(=O)C(C)C)cc1 (stereo not shown) was 1.94

----------
# Test system: AMPA receptors
# procedure-summary: AMPA ES Cell FLIPR Screen, G7330B (EC50 and % effect)
# Type: cell-based, murine
# protocol-conditions: individual determinations; ES cell-derived neurons, 32 uM AMPA challenge; read-out: G7330B (U): EC50
# Experimental: The murine ES cell line used was E14-Sx1-16C, which has a targeted mutation in the Sox1 gene, a neuroectodermal marker, that offers G418 resistance when the Sox1 gene is expressed (Stem Cell Sciences). ES cells were maintained undifferentiated as previously described (Roach). […] ES cells were plated on gelatin-coated dishes (BD Biosciences), the media was changed daily and the cells were dissociated with 0.05% Trypsin EDTA (Invitrogen) every other day. […]
pEC50: −log10 of the molar value.
readout-label: pEC50

Reported pEC50 for CCS(=O)(=O)N[C@@H]1CNCC[C@H]1c1ccc(-c2ccccc2)cc1 (relative stereo) was < 4.49

Reported pEC50 for CC(C)S(=O)(=O)N[C@@H]1CCN(C)C[C@H]1c1ccc(NC(=O)c2cc(F)cc(F)c2)cc1 (relative stereo) was < 4.50

Reported pEC50 for CC(C)S(=O)(=O)NC1CN(S(C)(=O)=O)CCC1c1ccc(-c2ccccc2)cc1 (stereo not shown) was < 4.50

Reported pEC50 for O=S(=O)(CC(F)(F)F)NC1CNCCC1c1ccc(-c2ccccc2)cc1 (stereo not shown) was < 4.49
